# targetUnderTest: HDAC6 (Homo sapiens (Human), UniProt Q9UBN7)
# Sequence (Q9UBN7 whole entry): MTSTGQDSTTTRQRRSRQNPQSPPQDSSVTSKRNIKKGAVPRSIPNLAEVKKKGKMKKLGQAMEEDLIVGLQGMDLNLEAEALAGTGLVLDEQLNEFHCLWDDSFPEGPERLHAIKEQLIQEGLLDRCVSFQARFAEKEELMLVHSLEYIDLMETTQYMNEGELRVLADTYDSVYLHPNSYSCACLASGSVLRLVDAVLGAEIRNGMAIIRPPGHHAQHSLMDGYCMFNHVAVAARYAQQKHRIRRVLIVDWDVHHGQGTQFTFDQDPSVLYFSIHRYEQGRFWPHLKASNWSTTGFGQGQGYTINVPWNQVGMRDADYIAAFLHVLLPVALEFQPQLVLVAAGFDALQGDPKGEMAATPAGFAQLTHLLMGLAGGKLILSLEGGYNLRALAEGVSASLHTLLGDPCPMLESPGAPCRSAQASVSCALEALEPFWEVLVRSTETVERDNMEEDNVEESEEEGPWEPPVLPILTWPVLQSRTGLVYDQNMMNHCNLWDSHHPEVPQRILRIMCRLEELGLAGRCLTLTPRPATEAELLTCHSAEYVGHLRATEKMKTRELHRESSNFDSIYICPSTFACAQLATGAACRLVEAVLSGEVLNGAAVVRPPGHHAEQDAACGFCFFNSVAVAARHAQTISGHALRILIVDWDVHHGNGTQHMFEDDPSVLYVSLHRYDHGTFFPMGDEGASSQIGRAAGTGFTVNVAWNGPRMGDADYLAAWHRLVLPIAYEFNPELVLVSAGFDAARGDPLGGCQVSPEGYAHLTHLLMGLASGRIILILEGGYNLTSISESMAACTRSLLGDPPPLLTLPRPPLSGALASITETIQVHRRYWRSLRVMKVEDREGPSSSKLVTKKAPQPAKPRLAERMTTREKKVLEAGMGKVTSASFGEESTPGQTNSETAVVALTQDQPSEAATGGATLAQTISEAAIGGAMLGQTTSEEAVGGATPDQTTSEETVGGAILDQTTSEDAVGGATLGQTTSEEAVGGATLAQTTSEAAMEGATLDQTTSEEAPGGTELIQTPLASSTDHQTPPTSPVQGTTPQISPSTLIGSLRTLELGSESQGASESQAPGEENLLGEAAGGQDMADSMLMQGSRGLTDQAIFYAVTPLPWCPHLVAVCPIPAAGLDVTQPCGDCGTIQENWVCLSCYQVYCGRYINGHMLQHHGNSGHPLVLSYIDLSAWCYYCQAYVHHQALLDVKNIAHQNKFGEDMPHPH
# cond: read-out: HDAC6 IC50
Reported IC50 values follow for various compounds
reportedProperty: IC50 (nM)

{"columns": ["compound", "reportedProperty", "outputUnit", "observedResult"],
 "data": [
  ["O=C(NO)c1cnc(NC2(c3ccc(F)cc3)CCOCC2)nc1 [Compound 150]", "IC50", "nM", 5],
  ["C[C@@H](Nc1ncc(C(=O)NO)cn1)c1ccccc1 [Compound 62]", "IC50", "nM", 2],
  ["Cc1cc(F)ccc1C(C)(C)Nc1ncc(C(=O)NO)cn1 [Compound 72]", "IC50", "nM", 19],
  ["CC(C)(Nc1ncc(C(=O)NO)cn1)c1ccccc1 [Compound 50]", "IC50", "nM", 4]
]}

---

# targetUnderTest: HDAC3 (Homo sapiens (Human))
# Sequence (O15379 whole entry): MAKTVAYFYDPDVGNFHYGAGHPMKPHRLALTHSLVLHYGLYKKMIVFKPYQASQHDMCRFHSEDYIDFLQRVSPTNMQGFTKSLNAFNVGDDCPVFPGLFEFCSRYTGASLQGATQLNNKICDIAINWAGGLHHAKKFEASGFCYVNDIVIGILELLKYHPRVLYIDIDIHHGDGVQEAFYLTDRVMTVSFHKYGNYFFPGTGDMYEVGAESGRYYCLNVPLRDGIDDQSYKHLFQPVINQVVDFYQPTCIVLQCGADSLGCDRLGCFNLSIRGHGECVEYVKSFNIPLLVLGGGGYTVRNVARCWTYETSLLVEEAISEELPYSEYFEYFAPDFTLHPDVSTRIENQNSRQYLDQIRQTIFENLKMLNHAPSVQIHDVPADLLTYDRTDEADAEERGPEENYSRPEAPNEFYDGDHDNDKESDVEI
# Sequence (Q9Y618 395-489 partner): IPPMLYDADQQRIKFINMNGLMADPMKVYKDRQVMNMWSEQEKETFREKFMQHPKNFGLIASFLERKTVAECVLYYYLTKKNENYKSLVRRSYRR
# assayProcedure: HDAC enzyme assay, HDAC3
# cond: read-out: HDAC3 IC50
pIC50: −log10 of the molar value.
Reported pIC50 values follow for various compounds

{"columns": ["compound", "pIC50"],
 "data": [
  ["COc1cccc(C2(Nc3ncc(C(=O)NO)cn3)CC2)c1 [Compound 120]", 6.89],
  ["O=C(NO)c1cnc(NC2(c3cc(C(F)(F)F)cc(C(F)(F)F)c3)CC2)nc1 [Compound 145]", 6.42],
  ["CC(C)(Nc1ncc(C(=O)NO)cn1)c1ccc(F)c(F)c1 [Compound 76]", 5.98],
  ["Cc1ccccc1C1(Nc2ncc(C(=O)NO)cn2)CC1 [Compound 127]", 6.92],
  ["O=C(NO)c1cnc(Nc2ccc(F)cc2)nc1 [Compound 3]", 6.45],
  ["Cc1ccc(Nc2ncc(C(=O)NO)cn2)cc1 [Compound 4]", 6.54],
  ["CC(C)(Nc1ncc(C(=O)NO)cn1)c1ccc(Cl)c(Cl)c1 [Compound 80]", 6.67],
  ["O=C(NO)c1cnc(NC2(c3ccc(Cl)cc3)CC2)nc1 [Compound 136]", 6.97],
  ["O=C(NO)c1cnc(NC2(c3ccc(F)cc3)CCOCC2)nc1 [Compound 150]", 5.75],
  ["O=C(NO)c1cnc(Nc2cc(C(F)(F)F)cc(C(F)(F)F)c2)nc1 [Compound 15]", 5.73],
  ["COc1ccccc1CNc1ncc(C(=O)NO)cn1 [Compound 45]", 6.30],
  ["O=C(NO)c1cnc(NC2(c3cccc(F)c3)CCOCC2)nc1 [Compound 149]", 5.88],
  ["O=C(NO)c1cnc(NCc2ccc(C(F)(F)F)cc2)nc1 [Compound 37]", 6.83],
  ["O=C(NO)c1cnc(NC2(c3cccs3)CC2)nc1 [Compound 98]", 5.37],
  ["O=C(NO)c1cnc(NCc2ccccc2-c2ccccc2)nc1 [Compound 55]", 6.20],
  ["O=C(NO)c1cnc(NC2(c3ccc(F)cc3Cl)CC2)nc1 [Compound 144]", 7.24],
  ["O=C(NO)c1cnc(NCc2cccc(C(F)(F)F)c2)nc1 [Compound 40]", 7.15],
  ["O=C(NO)c1cnc(NCc2ccccc2C(F)(F)F)nc1 [Compound 38]", 6.05],
  ["CC(C)(Nc1ncc(C(=O)NO)cn1)c1ccc(F)cc1F [Compound 70]", 5.88],
  ["CC(C)(Nc1ncc(C(=O)NO)cn1)c1cc(C(F)(F)F)cc(C(F)(F)F)c1 [Compound 92]", 5.35],
  ["O=C(NO)c1cnc(NC2(c3cc4ccccc4s3)CC2)nc1 [Compound 102]", 7.48]
]}

---

# targetUnderTest: UniProtKB O15379
# assayProcedure: HDAC enzyme assay, HDAC3
# cond: read-out: HDAC3 IC50
Reported IC50 values follow for various molecules

{"columns": ["moleculeSmiles", "targetUnderTest", "IC50, nM"],
 "data": [
  ["O=C(NO)c1cnc(NCc2ccc(Cl)cc2)nc1", "UniProtKB O15379", 75],
  ["O=C(NO)c1cnc(NCc2ccccc2)nc1", "UniProtKB O15379", 128],
  ["COc1cc(OC)cc(C2(Nc3ncc(C(=O)NO)cn3)CC2)c1", "UniProtKB O15379", 124]
]}
